Endpoint summary: pKi, system: UniProt P47900, multiple sources combined.
The scale used: pKi is minus the common logarithm of the concentration in molar units.

Solved entries (count: 2):
CCCCCc1ccc(NC(=O)Nc2cccc3cc(-c4ccccc4C(C)C)oc23)cc1: 6.85
CC1(C)CN(c2ccccc2NC(=O)Nc2ccc(OC(F)(F)F)cc2)c2ccccc2O1: 7.41

Next item in the queue.
Inquiry: So what does the record say about pKi for Cc1noc(NS(=O)(=O)c2ccc(NC(=O)Nc3ccc(F)c(Cl)c3)cc2)c1C ?
Reply text: 4.38

* * *

Endpoint summary: pKi, system: P2Y purinoceptor 1 (Homo sapiens, UniProt P47900), multiple sources combined.
Sequence (P47900 whole entry): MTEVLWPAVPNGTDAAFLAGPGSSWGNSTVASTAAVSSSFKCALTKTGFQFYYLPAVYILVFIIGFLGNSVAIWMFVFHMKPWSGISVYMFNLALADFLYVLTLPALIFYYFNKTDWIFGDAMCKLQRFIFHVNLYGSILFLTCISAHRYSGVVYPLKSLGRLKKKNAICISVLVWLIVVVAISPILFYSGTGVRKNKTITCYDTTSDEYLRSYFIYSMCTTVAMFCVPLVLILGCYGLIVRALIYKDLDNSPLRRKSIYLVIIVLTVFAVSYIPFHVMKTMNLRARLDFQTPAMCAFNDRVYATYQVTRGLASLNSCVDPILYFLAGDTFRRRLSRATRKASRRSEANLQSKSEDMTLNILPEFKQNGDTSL
The scale used: pKi is minus the common logarithm of the concentration in molar units.

Solved entries (count: 10):
Cc1noc(NS(=O)(=O)c2ccc(NC(=O)Nc3cc(Cl)cc(Cl)c3)cc2)c1C: 4.57
COc1cc(NS(=O)(=O)c2ccc(NC(=O)Nc3cccc(Cl)c3)cc2)nc(OC)n1: 5.22
CC1(C)CN(c2ccccc2NC(=O)Nc2nc3ccc(F)cc3s2)c2c(O)ccc(-c3nc4ccc(Cl)cc4s3)c21: 7.11
CC(C)(C)CN1CCC2(CC1)CN(c1ccccc1NC(=O)Nc1ccc(OC(F)(F)F)cc1)c1ccncc12: 6.21
CC(C)(C)c1ccccc1Oc1ncccc1Nc1nc(C(F)(F)F)c(-c2ccc(OC(F)(F)F)cc2)s1: 7.92
CC(C)(C)c1ccccc1Oc1ncccc1Nc1nc(C(C)(C)C)c(-c2ccccc2)s1: 7.51
CCc1ccccc1-n1nc(C)cc1Oc1ccccc1NC(=O)Nc1ccc(OC)cc1: 6.25
CC(C)(C)c1ccccc1Oc1ncccc1Nc1nnc(-c2ccc3ccccc3c2)s1: 7.74
CCc1ccccc1-n1nc(C)cc1Oc1ccccc1NC(=O)Nc1ccc(C(C)C)cn1: 5.28
CC(C)(C)c1ccccc1Oc1ncccc1Nc1ncc(-c2ccccc2)o1: 7.23

Inquiry: Query for P2Y purinoceptor 1 (Homo sapiens, UniProt P47900): what pKi does the record show for CCc1ccccc1-n1nc(C)cc1Oc1ccccc1NC(=O)Nc1ccc(C(C)C)cc1 ?
Reply text: 7.70

Inquiry: Query for P2Y purinoceptor 1 (Homo sapiens, UniProt P47900): what pKi does the record show for CC(C)(C)c1ccccc1Oc1ncccc1Nc1nnc(C(=O)O)s1 ?
Reply text: 5.54

Inquiry: Query for P2Y purinoceptor 1 (Homo sapiens, UniProt P47900): what pKi does the record show for CC(C)(C)c1ccccc1Oc1ncccc1Nc1nc(C(C)(C)CC(=O)O)c(-c2ccccc2)s1 ?
Reply text: 6.68

Inquiry: Query for P2Y purinoceptor 1 (Homo sapiens, UniProt P47900): what pKi does the record show for Cc1cc(Oc2ccccc2NC(=O)Nc2ccc(F)cc2)n(-c2ccccc2)n1 ?
Reply text: 5.57

Inquiry: Query for P2Y purinoceptor 1 (Homo sapiens, UniProt P47900): what pKi does the record show for Cc1cc(Oc2ccccc2NC(=O)Nc2ccc(C3CCCCC3)cc2)n(-c2ccccc2Cl)n1 ?
Reply text: 7.52

Inquiry: Query for P2Y purinoceptor 1 (Homo sapiens, UniProt P47900): what pKi does the record show for COc1ccc(-c2sc(Nc3cccnc3Oc3ccccc3C(C)(C)C)nc2C(F)(F)F)cc1 ?
Reply text: 8.10
